Property: HepSE_liver fatty; scope: individual compounds
- Test system: Hepatotoxicity
- setup conditions: Liver
No unit in the answer, only the number.

# annotated cases, reported HepSE_liver fatty shown
{"compound": "CNC[C@H](O)c1ccc(O)c(O)c1 [EPINEPHRINE]", "assayed target": "Hepatotoxicity", "value": 0}
{"compound": "CN1[C@@H]2C[C@@H](OC(=O)[C@H](CO)c3ccccc3)C[C@H]1[C@@H]1O[C@@H]12 [SCOPOLAMINE]", "assayed target": "Hepatotoxicity", "value": 0}

[Q] Item under review: CC(C[N+](C)(C)C)OC(N)=O (configuration not stated) [BETHANECHOL] . Reported HepSE_liver fatty?
[A] 0

###

// reported HepSE_hepatic failure for each item listed
- Tested on: Hepatotoxicity
- setup conditions: Liver
Reply: number alone, nothing else.

Below, 4 compounds whose answers are already recorded.
{"compound": "CN(C)CCC=C1c2ccccc2C=Cc2ccccc21", "HepSE_hepatic failure": 0}
{"compound": "CC(C)NCC(O)COc1ccc(CCOCC2CC2)cc1 (stereo not given)", "HepSE_hepatic failure": 0}
{"compound": "CC(C)n1c(/C=C/C(O)CC(O)CC(=O)O)c(-c2ccc(F)cc2)c2ccccc21 (stereo not given)", "HepSE_hepatic failure": 0}
{"compound": "CCCNCC(O)COc1ccccc1C(=O)CCc1ccccc1 (stereo not given)", "HepSE_hepatic failure": 0}

[Q] Give HepSE_hepatic failure (Hepatotoxicity) of the following compound: Cc1cccc(C)c1OCC(C)N (stereo not given)
[A] 0

[Q] Item CC(=O)[C@@]1(O)CC[C@H]2[C@@H]3C[C@H](C)C4=CC(=O)CC[C@]4(C)[C@H]3CC[C@@]21C with Hepatotoxicity - HepSE_hepatic failure?
[A] 1

[Q] Notebook: pull reported HepSE_hepatic failure for Hepatotoxicity, entry COC(=O)[C@H](c1ccccc1Cl)N1CCc2sccc2C1
[A] 1

[Q] Observed HepSE_hepatic failure on Hepatotoxicity for NC(CO)(CO)CO , please.
[A] 0

[Q] Look up HepSE_hepatic failure with Hepatotoxicity for this compound: CC(C)NCC(O)c1ccc(O)c(O)c1 (stereo not given)
[A] 0

###

Here's a batch of compounds along with measured HepSE_liver function tests abnormal for Hepatotoxicity.
// no unit, no text: just the number

Reference set (5 entries):
{"compound": "C[C@H](Cn1cnc2c(N)ncnc21)OCP(=O)(O)O [TENOFOVIR ANHYDROUS]", "HepSE_liver function tests abnormal": 0}
{"compound": "N[C@@H](Cc1c[nH]c2ccccc12)C(=O)O", "HepSE_liver function tests abnormal": 0}
{"compound": "CN(C)[C@@H]1C(O)=C(C(N)=O)C(=O)[C@@]2(O)C(O)=C3C(=O)c4c(O)cccc4[C@@](C)(O)[C@H]3[C@H](O)[C@@H]12", "HepSE_liver function tests abnormal": 0}
{"compound": "CC[C@H](C)[C@@H]1NC(=O)[C@H](Cc2ccc(O)cc2)NC(=O)[C@@H](N)CSSC[C@@H](C(=O)N2CCC[C@H]2C(=O)N[C@@H](CC(C)C)C(=O)NCC(N)=O)NC(=O)[C@H](CC(N)=O)NC(=O)[C@H](CCC(N)=O)NC1=O", "HepSE_liver function tests abnormal": 0}
{"compound": "CN1CCN(C2=Nc3cc(Cl)ccc3Nc3ccccc32)CC1", "HepSE_liver function tests abnormal": 0}

[Q] If you can, please state the reported HepSE_liver function tests abnormal value of O=C(NCC1CCCCN1)c1cc(OCC(F)(F)F)ccc1OCC(F)(F)F (stereo unspecified) [FLECAINIDE] .
[A] 0

[Q] Value lookup for HepSE_liver function tests abnormal; key = NC(=O)N1c2ccccc2CC(=O)c2ccccc21 [OXCARBAZEPINE]
[A] 1
